B1: SMOC2 (parent)
chain: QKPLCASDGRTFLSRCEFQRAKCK

Variants of: B1
assay.remarks: protein stability index of a GFP-peptide fusion (GPS, HEK-293T) (PSI 1-6); higher = more stable;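 also: lentivirally expressed fusions sorted by FACS into six bins by GFP to DsRed ratio, PSI derived from sequencing read proportions per bin multiplied by bin number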
test.context: c terminus: a fixed tail appended
We begin with a simple list: items and their reported protein stability index.

changes | protein stability index
K24G | 2.95
C23S | 3.69
Q1I | 2.19
S7K | 3.32
E17Y | 3.05
K24E | 3.19
K22H | 2.31
A21I | 3.14
S7Y | 2.15
K24F | 1.92
K22Q | 3
T11P | 3.37
C23Y | 1.85
R15G | 3.93
Q1N | 3.36
D8F | 1.94
C5S | 2.91
